# Experiment summary: Stability (50° C., 40° C./75% RH, light; 1 week)
# Format: physicochemical
# Details: 50° C., bulk, 1 week
Can you tell me purity for the items I'm about to list?
Numbers only, in %.

1) CC(C)c1nc(-c2cnc(N)c(OC(F)(F)F)c2)cn1C12CC(N3CCOCC3)(C1)C2.O=C(O)CC(O)(CC(=O)O)C(=O)O [Example 8] | 98.91

# map each molecule to its purity
1. CC(C)c1nc(-c2cnc(N)c(OC(F)(F)F)c2)cn1C12CC(N3CCOCC3)(C1)C2.O=C(O)/C=C/C(=O)O [Example 11]
2. CC(C)c1nc(-c2cnc(N)c(OC(F)(F)F)c2)cn1C12CC(N3CCOCC3)(C1)C2 [Example 1]

[reply]
99.89
99.41

# map each molecule to its purity
1. CC(C)c1nc(-c2cnc(N)c(OC(F)(F)F)c2)cn1C12CC(N3CCOCC3)(C1)C2.O=C(O)CCC(=O)O [Example 10]
2. CC(C)c1nc(-c2cnc(N)c(OC(F)(F)F)c2)cn1C12CC(N3CCOCC3)(C1)C2.O=C(O)/C=C\C(=O)O [Example 9]

[reply]
1: 100; 2: 99.89

----------
# Experiment summary: Solubility of hydrogen fumarate salt 11 (1000 mg scale-up batch)
# Format: physicochemical
# Details: aqueous with cosolvent or surfactant or cyclodextrin; 1/1 (v/v) EtOH/H2O, 50° C.
Result type: solubility

[ask] Please look at this compound and report its solubility: CC(C)c1nc(-c2cnc(N)c(OC(F)(F)F)c2)cn1C12CC(N3CCOCC3)(C1)C2.O=C(O)/C=C/C(=O)O
[reply] 50 to 100 mg/mL

----------
# Experiment summary: Solubility of the Example 1 compound in organic solvents
# Type: physicochemical
# Details: 25 °C, organic solvent or mixture, thermodynamic from solid; Toluene, RT
Result type: solubility at 2 h

[ask] Please look at this compound and report its solubility at 2 h: CC(C)c1nc(-c2cnc(N)c(OC(F)(F)F)c2)cn1C12CC(N3CCOCC3)(C1)C2
[reply] < 50 mg/mL

----------
# Experiment summary: Solubility in physiologically relevant solutions (SGF, FaSSIF, FeSSIF)
# Format: physicochemical
# Details: SGF, 25±0.5° C.
Result type: SGF pH after 24 h
Give bare numbers.

Reference set, count: 3
1. CC(C)c1nc(-c2cnc(N)c(OC(F)(F)F)c2)cn1C12CC(N3CCOCC3)(C1)C2.O=C(O)/C=C/C(=O)O [Example 11] | 3.01
2. CC(C)c1nc(-c2cnc(N)c(OC(F)(F)F)c2)cn1C12CC(N3CCOCC3)(C1)C2.O=C(O)/C=C\C(=O)O [Example 9] | 3.26
3. CC(C)c1nc(-c2cnc(N)c(OC(F)(F)F)c2)cn1C12CC(N3CCOCC3)(C1)C2 [Example 1] | 3.83

# map each compound to its SGF pH after 24 h
1. CC(C)c1nc(-c2cnc(N)c(OC(F)(F)F)c2)cn1C12CC(N3CCOCC3)(C1)C2.O=C(O)CCC(=O)O [Example 10]
2. CC(C)c1nc(-c2cnc(N)c(OC(F)(F)F)c2)cn1C12CC(N3CCOCC3)(C1)C2.O=C(O)CC(O)(CC(=O)O)C(=O)O [Example 8]

[reply]
1: 3.71; 2: 3.26

----------
# Experiment summary: Solubility of hydrogen fumarate salt 11 (1000 mg scale-up batch)
# Assay type: physicochemical
# Details: organic solvent or mixture; Dioxane, 50° C.
Result type: solubility

[ask] Please look at this molecule and report its solubility: CC(C)c1nc(-c2cnc(N)c(OC(F)(F)F)c2)cn1C12CC(N3CCOCC3)(C1)C2.O=C(O)/C=C/C(=O)O
[reply] 20 to 33 mg/mL
